Where these numbers come from: the supplement of paper PMC4466140

target: ScBzz1-D2; assay: SPOT peptide array binding signal intensity (averaged, normalized) (arbitrary units (background-subtracted, floor 0; scale differs between SH3 domains)); higher = stronger binding of the SH3 domain to the peptide
Documented SPOT peptide array binding signal intensity across a set of binders
Give your answer as a number; write no unit.

Worked examples follow.
NPLPKEPRLPKRKVA; 56.5
RLSFFFPLDPAYIRN; 79
IKKRNKIRLPSGSPE; 15

// moving on: another record for SPOT peptide array binding signal intensity
Q: I have this binder here, DLPLPDLPPEPPTEL , and I need its recorded SPOT peptide array binding signal intensity.
A: 2
